test system: Saccharomyces cerevisiae; assay: protein stability index of tFT-peptide fusion (C-terminal peptide) (PSI (0-1 scale)); higher = more stable (slower turnover); conditions: genetic background: wild type; temperature: 30 C;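 note: PSI is a weighted mean of sequencing reads over stability bins, variants kept only with over 10 reads, mCherry proximal and sfGFP distal, peptide attached via GGGS linker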
Classification by protein stability index | ranges: low: < 0.6; medium: ≥ 0.6 and < 0.7; high: ≥ 0.7

// known answers, use as guide
# residues, class-assignment
measured = [
    ("GYSPLHPILLGL", "low"),
    ("GSPPHTLPLHGR", "medium"),
    ("LSYSLSSPRVFH", "high"),
    ("NTKNPRPQDPQQ", "medium"),
    ("PPPLPPGPALPL", "high"),
]

For VVRARLYVWWLG , which protein stability index bin applies?
medium

For HDAKIGTSTCWV , which protein stability index bin applies?
medium

For KKKKKKTTPKTN , which protein stability index bin applies?
high

For SLCPFLCILCFG , which protein stability index bin applies?
low

For VAGSQYTAGGDV , which protein stability index bin applies?
medium

For TTVESYLDRRRY , which protein stability index bin applies?
medium

====

test system: Saccharomyces cerevisiae; assay: protein stability index of tFT-peptide fusion (C-terminal peptide) (PSI (0-1 scale)); higher = more stable (slower turnover); settings: genetic background: wild type; temperature: 30 C
Exercise: state measured protein stability index for each of the sequences provided.

Some solved entries appear below for comparison.
# residues, protein stability index
records = [
    ("GSMGGVGVLGGD", 0.476),
    ("LFLYDFIALRCS", 0.24),
    ("RFLVVVRFYWRC", 0.214),
    ("VVAALTPLITVA", 0.179),
    ("LVPYLWWLVFAL", 0.143),
]

State recorded protein stability index for all listed sequences.
1. YNRKQEAAQKAN
2. WGFLSVVCLSGV
3. NHKNANAATLIN
4. GFESTCSLLCVF

1: 0.396; 2: 0.398; 3: 0.352; 4: 0.306

State recorded protein stability index for all listed sequences.
1. LFFGFFLIYFLG
2. SPPHSPSALPPP
3. APPRSLSPPLLS
4. GLRLRCPLLLSL

0.278
0.669
0.679
0.324

State recorded protein stability index for all listed sequences.
1. AFLCVFGFCFFV
2. WRMRCGLIIGLV
3. SQCVVYLSVRFS
4. HIVYCSSEQIKC
5. PFFHVFLLLLLI
6. FSLGGVPYVFFV

1: 0.278; 2: 0.134; 3: 0.353; 4: 0.483; 5: 0.154; 6: 0.221

====

system: Saccharomyces cerevisiae; assay: protein stability index of tFT-peptide fusion (C-terminal peptide) (PSI (0-1 scale)); higher = more stable (slower turnover); conditions: genetic background: cdc34-1; temperature: 37 C
Label Fulfilled when protein stability index is at or above 0.6; otherwise label Not fulfilled.

// known answers, use as guide
# residues, experimental-system, class-assignment
rows = [
    ("GFESTCSLLCVF", "Saccharomyces cerevisiae", "Not fulfilled"),
    ("SGFWVSVDVFFV", "Saccharomyces cerevisiae", "Not fulfilled"),
    ("WLSWATRRIVLG", "Saccharomyces cerevisiae", "Not fulfilled"),
]

Could you please find out whether GLWLCRGLVRAW has protein stability index that meets 0.6 or exceeds it?
Not fulfilled

Could you please find out whether LFCVCFYGRIFL has protein stability index that meets 0.6 or exceeds it?
Not fulfilled

Could you please find out whether FLRWRVWVVVGW has protein stability index that meets 0.6 or exceeds it?
Not fulfilled

Could you please find out whether GPPPAPSPTPSP has protein stability index that meets 0.6 or exceeds it?
Fulfilled

Could you please find out whether VWVVRGFLGFGG has protein stability index that meets 0.6 or exceeds it?
Not fulfilled

Could you please find out whether VGPLAPVCLLVL has protein stability index that meets 0.6 or exceeds it?
Not fulfilled

Could you please find out whether WRVFRPSLRLFA has protein stability index that meets 0.6 or exceeds it?
Not fulfilled

Could you please find out whether PRSFFYIQFVFA has protein stability index that meets 0.6 or exceeds it?
Not fulfilled

====

test system: Saccharomyces cerevisiae; assay: protein stability index of tFT-peptide fusion (C-terminal peptide) (PSI (0-1 scale)); higher = more stable (slower turnover); details: genetic background: wild type; temperature: 37 C
Label criterion met when protein stability index is at or above 0.4; otherwise label criterion not met.

# residues, class-assignment
rows = [
    ("LFVFVLAGFCCV", "criterion met"),
    ("HIVYCSSEQIKC", "criterion met"),
    ("SRVGAGVVRGVG", "criterion met"),
    ("FSAVVCPTVFLC", "criterion not met"),
    ("WGFLSVVCLSGV", "criterion met"),
]

Could you please find out whether FALVSLSFALVE has protein stability index that meets 0.4 or exceeds it?
criterion met

Could you please find out whether FGLRVHPIVFIF has protein stability index that meets 0.4 or exceeds it?
criterion not met

====

system: Saccharomyces cerevisiae; assay: protein stability index of tFT-peptide fusion (C-terminal peptide) (PSI (0-1 scale)); higher = more stable (slower turnover); settings: genetic background: wild type; temperature: 30 C
Label Y when protein stability index is at or above 0.7; otherwise label N.

// known answers, use as guide
# residues, class-assignment
measured = [
    ("TFHTSSSPAHLP", "N"),
    ("LILSSGSPAFKT", "N"),
    ("LKTNECIPVTEK", "N"),
    ("GVWQGVGVRGWG", "Y"),
]

Could you please find out whether GGGGGVGGVGRV has protein stability index that meets 0.7 or exceeds it?
N

Could you please find out whether KKCSNNPMTLRI has protein stability index that meets 0.7 or exceeds it?
N

Could you please find out whether VWWTLWRVHMLG has protein stability index that meets 0.7 or exceeds it?
N

Could you please find out whether VLSFFQCSWVLL has protein stability index that meets 0.7 or exceeds it?
N

Could you please find out whether PCVLAIYVWIRS has protein stability index that meets 0.7 or exceeds it?
N

Could you please find out whether TTLPFLLGSGGF has protein stability index that meets 0.7 or exceeds it?
N

Could you please find out whether SPPPPHPPPPAD has protein stability index that meets 0.7 or exceeds it?
N

Could you please find out whether SLLAPPALTAPS has protein stability index that meets 0.7 or exceeds it?
N

Could you please find out whether QVLFTPLLNVTK has protein stability index that meets 0.7 or exceeds it?
Y

====

test system: Saccharomyces cerevisiae; assay: protein stability index of tFT-peptide fusion (C-terminal peptide) (PSI (0-1 scale)); higher = more stable (slower turnover); conditions: genetic background: cdc34-1; temperature: 37 C
reported-property: protein stability index
Give bare numbers.

# residues, experimental-system, protein stability index
data = [
    ("LWERRSRQLTMF", "Saccharomyces cerevisiae", 0.645),
]

State recorded protein stability index for all listed sequences.
1. LRMSLLVFLLFA
2. LVVWASLVRVEG
3. RGVGSGGLEGIG
4. SCLLVVVSTSGN
5. IWYGLFWLRFWV
6. FFVFMAKLRTCN
7. AFFCTLCLFLVS
8. YCFLSWVLMCCF

1. 0.312
2. 0.271
3. 0.509
4. 0.536
5. 0.513
6. 0.455
7. 0.44
8. 0.457

State recorded protein stability index for all listed sequences.
1. EGGLGDRLLGVG
2. ACEFRFFYVFRC
3. YRLTIVWFFLAL
4. FWFSFSFLCHSY
5. SFFWAMSLLCFV
6. VLVVVRSLSFLS

0.526
0.304
0.434
0.384
0.511
0.405

State recorded protein stability index for all listed sequences.
1. FYGVRFLVCVSA
2. FFYVFPFFIFRF
3. RSKWEKLDKIVS
4. VCQVCVCFLFWR

1: 0.0202; 2: 0.338; 3: 0.675; 4: 0.0977

====

tested on: Saccharomyces cerevisiae; test: protein stability index of tFT-peptide fusion (C-terminal peptide) (PSI (0-1 scale)); higher = more stable (slower turnover); settings: genetic background: wild type; temperature: 30 C
reported-property: protein stability index

State recorded protein stability index for all listed sequences.
1. FLYIPLYCRLSF
2. PPPLLPHLLLPP
3. RMIQKFGLGVVV

0.256
0.611
0.561

====

test system: Saccharomyces cerevisiae; assay: protein stability index of tFT-peptide fusion (C-terminal peptide) (PSI (0-1 scale)); higher = more stable (slower turnover); settings: genetic background: wild type; temperature: 30 C
reported-property: protein stability index
Answers are plain numbers.

State recorded protein stability index for all listed sequences.
1. NALLHPRSHLAF
2. CGPLLVTLVLSM
3. PPLCTTPTPRRV
4. SLYERYGRFNSS
5. GCVGCNRWWPGW
6. HNGYLKRIKISR
7. RKVKGKKRYTEG

1: 0.686; 2: 0.404; 3: 0.735; 4: 0.656; 5: 0.721; 6: 0.707; 7: 0.662

State recorded protein stability index for all listed sequences.
1. LFFSIVSPPCGR
2. GILPDSCRSNTG
3. NICLPLAHRTPG

1. 0.748
2. 0.623
3. 0.655
